tested on: Echinochloa oryzoides (Ard.) Fritsch.; test: Preemergence weed control under flooded paddy conditions, ECHORC (Watergrass (Calif.)); type: in vivo; conditions: 0.0620 kg/ha; preemergence, flooded paddy; rated three to four weeks after treatment
experimental-readout: ECHORC herbicidal rating
The answer should be a number; do not append a unit.

>  <smiles-str>
Cn1c(C(F)(F)F)cc(=O)n(-c2ccc3snc(C(=O)NS(N)(=O)=O)c3c2)c1=O

>  <measured-number>
3.0

$$$$
>  <smiles-str>
COc1ccc(CC(=O)OCc2nsc3ccc(-n4c(=O)cc(C(F)(F)F)n(C)c4=O)cc23)cc1OC

>  <measured-number>
3.0

$$$$
>  <smiles-str>
CSCOCc1nsc2ccc(-n3c(=O)cc(C(F)(F)F)n(C)c3=O)cc12

>  <measured-number>
4.0

$$$$
>  <smiles-str>
Cn1c(C(F)(F)F)cc(=O)n(-c2ccc3snc(COC(=O)C4CC4)c3c2)c1=O

>  <measured-number>
4.0

$$$$

Entry under test: Cn1c(C(F)(F)F)cc(=O)n(-c2ccc3snc(C(C)(C)C(=O)OCc4ccccn4)c3c2)c1=O . Its ECHORC herbicidal rating was 9.0

// recorded ECHORC herbicidal rating for Cc1ccccc1CS(=O)(=O)NC(=O)c1nsc2ccc(-n3c(=O)cc(C(F)(F)F)n(C)c3=O)cc12 : 6.0

Measured ECHORC herbicidal rating, CN(C)S(=O)(=O)NC(=O)c1nsc2ccc(-n3c(=O)cc(C(F)(F)F)n(C)c3=O)cc12 : 2.0

What the record says about C=CCOc1c(I)cc(C)cc1-c1nsc2ccc(-n3c(=O)cc(C(F)(F)F)n(C)c3=O)cc12 : ECHORC herbicidal rating is 6.0
